Recorded measurements of # of individuals of 14 with positive BAT test, one per entry
# System: basophils in whole blood from HDM allergic donors
# Protocol Details: Basophil Activation Test (BAT)
# Type: cell-based, human
# Assay Context: 1000 ng/ml; blood from HDM allergic individuals (n=14)
// return a plain number; no unit text

The cases that follow already have their # of individuals of 14 with positive BAT test on record.
A003: house dust mite protein; SEQ ID NO: 2 (Der f), 3 (Der p), 305 (Blo t) (protein) MAIDGKYQMESSEHFEEFVKEMGLDVDMTNVDLSKTSTMEICKDGDVYHIKSETAGIAHEIKFKVGEEFEDDMNGHKFKNVVTMECDNKMVQKKTSADGGKVVNVVREFTDAGCTVKSTYNTVTWTRVYKRM = 1
A001: house dust mite protein; SEQ ID NO: 13 (Der f), 14 (Der p); recombinant test protein (protein) KKSPDCDIERPIRECLKDGLLRYSSGQKINQFPDTIQDLNRACEELKKSETCARTFIDTCTESSYEKRSLDSLLDGIQRVMKRLCRSQTKKEKLLENVGCANSVVQDTKQCLKNYRMLVFAANKLDNKNKIMRILCCKSRKVAPCIGEAMKAKGTAVCSAKNIDYFKDVHQNIKQEMTAVVCSDFERDQCENVDVPNISESEYKDQNIFNPLRDLYKKVILG = 2
A023: house dust mite protein; SEQ ID NO: 23 (Der f), 24 (Der p) (protein) DPVQQRPTLRGVTVRVGPFVKENNGKFEGFIPDLVQAISEKVGFDYTLYLSPDGRYGNVISDGNVTGMIGEVYNKKADFAAADLTMTEARENYITFTEPFMINQLAALIRREDAEGLNTLEDLAKAQETFPKRKRIVLGTLRNGATNYFLSKSDDPLAKKIYEQIKADDQSVVKSISEGVERVDKQGGYAFIMESASAEHEIANNCKLTMLLDWRNLFPRKYAFALPKDSPYLEHFNNAIKQLNSEGKIAELRRKYWANNCAENKTKDDKN = 1
A016: house dust mite protein; SEQ ID NO: 28 (Der f), 29 (Der p) (protein) MVKIGINGFGRIGRLVLRAAIKKGVEVAAINDPFLDVKYMVYMFKFDSTHGRYQGEVKEEGGLLVVDGQKIQVFQERNPAEIPWGKVGADYVVESTGVFTTIEKAKAHLAGGAKKVIISAPSADAPMYVMGVNHDKYDPKQQIISNASCTTNCLAPLAKVINDKFGIENGLMTTVHAITATQKTVDGPSGKLWRDGRGAGQNIIPASTGAAKAVGKVIPELNGKLTGMALRVPVPDVSVVDLTVTLKNPASYDEIKAAVKAAAESDHWKGILEYTDEEVVSSDFISDTHSSIFDAKAGIALTPTFVKLIAWYDNEFGYSNRVVDLIKYVASK = 0
A020: house dust mite protein; SEQ ID NO: 15 (Der f), 16 (Der p); Blo t SEQ ID NO: 316 printed as A0019 (protein) MSKPIFYYHPFSGPCRTVSTVAKILNVDMEMKKLDLLTKEHLNPEFLKVNPFHKVPTFVDSDGFVVDESRVIAMYLVESRKPDSFLYPKNDLKKRIQIDRWLHYDINLSTTISAPMFCVFRGHQVQDYQVEQGKETLKTLDGVMQSFEGKFLTGADQFTLADIAMYFSLNTMEVYPKYFKFDDYPNLKSWYHRVAEALKQYDTEGTIPKAIETMKQFIQQRAAEAEKH = 1

Data request, read-out # of individuals of 14 with positive BAT test, for Derf2: major house dust mite allergen, group 2, Dermatophagoides farinae; control (protein, UniProt Q00855 18-146, looked up) Mite group 2 allergen Der f 2: DQVDVKDCANNEIKKVMVDGCHGSDPCIIHRGKPFTLEALFDANQNTKTAKIEIKASLDGLEIDVPGIDTNACHFMKCPLVKGQQYDIKYTWNVPKIAPKSENVVVTVKLIGDNGVLACAIATHGKIRD
13

Data request, read-out # of individuals of 14 with positive BAT test, for A022: house dust mite protein; SEQ ID NO: 19 (Der f), 20 (Der p), 317 (Blo t) (protein) NWQMVWQDEFNGGHLDQNHWEFETGGGGWGNNELEFYTANRSQNVRVENGHLVIDVRVESYGGRDFTSGRIHSKQAWAYGKFEARARLPSGHHLWPAIWMFPRDSKYGPWAASGEIDIMEYRGDVHDKIEGTIHYGGQWPNNIYTGSGPHHFNVDFSKDFHNFAVEWDTKEIRWYMDGNKYFSVNIDRNMWSGKGNNPYNKNGQPFDQPFRWILNVAVGGNFFGPGPYVTPDQARHWQKHTMEIDYVRVYQWR
5

Data request, read-out # of individuals of 14 with positive BAT test, for Derf1: major house dust mite allergen, group 1, Dermatophagoides farinae; control (protein, UniProt P16311 99-321, looked up) Peptidase 1: TSACRINSVNVPSELDLRSLRTVTPIRMQGGCGSCWAFSGVAATESAYLAYRNTSLDLSEQELVDCASQHGCHGDTIPRGIEYIQQNGVVEERSYPYVAREQRCRRPNSQHYGISNYCQIYPPDVKQIREALTQTHTAIAVIIGIKDLRAFQHYDGRTIIQHDNGYQPNYHAVNIVGYGSTQGDDYWIVRNSWDTTWGDSGYGYFQAGNNLMMIEQYPYVVIM
10

Data request, read-out # of individuals of 14 with positive BAT test, for Derp1: major house dust mite allergen, group 1, Dermatophagoides pteronyssinus; control (protein, UniProt P08176 99-320, looked up) Peptidase 1: TNACSINGNAPAEIDLRQMRTVTPIRMQGGCGSCWAFSGVAATESAYLAYRNQSLDLAEQELVDCASQHGCHGDTIPRGIEYIQHNGVVQESYYRYVAREQSCRRPNAQRFGISNYCQIYPPNVNKIREALAQTHSAIAVIIGIKDLDAFRHYDGRTIIQRDNGYQPNYHAVNIVGYSNAQGVDYWIVRNSWDTNWGDNGYGYFAANIDLMMIEEYPYVVIL
10
